experiment: NCI Yeast Anticancer Drug Screen. Data for the mlh1 rad18 strain (AID 175); settings: S. cerevisiae mlh1 rad18 strain growth inhibition; at 50.0 µM
The panel holds about 79,000 compounds, 15% with a hit somewhere; the sample as a whole holds those more often. Calls of active or inactive are those of the source. Cut-off read from the data, not from the text of the source: active = growth inhibition above about 70%; inactive = the rest.
Would you mind answering with one of these outcomes? active, inactive

Some solved entries appear below for comparison.
MOLECULE	ASSIGNED_CLASS
Cc1cc(OC(C)C)cc(C)c1C(=O)OCC(C)CN1CCCC1 (stereo not drawn)	inactive
CCCCN(CCCC)C(=O)C(=O)C(C)C(=O)CC (stereo not drawn)	inactive
Nc1cc(=O)[nH]c(N2CCN(c3ccccc3)CC2)n1	inactive
Cn1c(=O)c2c(nc(OC3CCCCC3)n2C)n(C)c1=O	inactive
CC(C)c1nnnn1C12CC3CC(CC(C3)C1)C2	inactive
NC(=O)N1N=C2c3ccccc3SC[C@H]2[C@@H]1c1ccccc1	inactive
CC(Oc1ccccc1)C(=O)Nc1ccc(F)cc1 (stereo not drawn)	inactive
O=c1oc2c(CN3CCOCC3)c(O)ccc2c2c1CCCC2	inactive
O=C(O)c1ccccc1C(=O)Nc1ccc2ccccc2c1	inactive
C=C(Cl)C(Br)(CCl)CCC(Cl)C(C)C (stereo not drawn) (tested in a mixture with another compound)	active

Q) Could you check what this test reported for CC1=NC(=O)CNN1C1=NNC2(C(=O)N1)c1ccccc1-c1ccccc12 ?
A) inactive

Q) Could you check what this test reported for Cc1ccc(S(=O)(=O)N2CCN(C=S)CC2)cc1 ?
A) inactive

----------
assay: NCI Yeast Anticancer Drug Screen. Data for the mlh1 rad18 strain (AID 175); conditions: S. cerevisiae mlh1 rad18 strain growth inhibition; at 50.0 µM; stronger effect = higher value
This is part of a sample that, as a whole, favours compounds with a hit. Of some 79,000 tested, about 15% had one in any assay. The source made the active and inactive calls. Cut-off read from the data, not from the text of the source: active = growth inhibition above about 70%; inactive = the rest.
VALUE_TYPE: growth inhibition

Below, 3 compounds whose answers are already recorded.
COMPOUND	RESULT
CCNC(=O)OCCN(C)CCOC(=O)NCC	-0.7% (inactive)
CNC(=O)n1c(N)nc(-c2ccccc2)c1-c1ccccc1	-46.9% (inactive)
CC=C(c1ccccc1)c1ccccc1	-15.2% (inactive)

Q) I have this compound here, CCC1CC/C(=N\Nc2ccc([N+](=O)[O-])cc2[N+](=O)[O-])c2ccc3c(C)ccc(C)c3c21 (configuration not stated) , and I need its recorded growth inhibition.
A) 6.8% (inactive)

Q) I have this compound here, O=C(O)[C@@H]1CCC(=O)N1C(c1ccc2c(c1)OCO2)c1ccc2c(c1)OCO2 , and I need its recorded growth inhibition.
A) -24.4% (inactive)

----------
assay: NCI Yeast Anticancer Drug Screen. Data for the mlh1 rad18 strain (AID 175); conditions: S. cerevisiae mlh1 rad18 strain growth inhibition; at 50.0 µM; stronger effect = higher value
This is part of a sample that, as a whole, favours compounds with a hit. Of some 79,000 tested, about 15% had one in any assay.
VALUE_TYPE: growth inhibition (%)
Report only the number, with the unit % understood.

COMPOUND	growth inhibition [%]
CN1CCN(C(=O)Nc2ccc(N=Nc3ccccc3)cc2)CC1	-6.25
Cc1cc2c(cc1[N+](=O)[O-])OCCO2	8.55
Cc1ccc2c(CC(=O)O)cc(=O)oc2c1	-9.35
CN1CCC(O)(c2ncc(Br)c3ccccc23)CC1	39.6

Q) I have this compound here, CCOC(=O)c1nnsc1NN , and I need its recorded growth inhibition.
A) -4.1

Q) I have this compound here, O=C(O)COc1ccc([N+](=O)[O-])cc1/C=C1/SC(=S)N(c2ccccc2)C1=O , and I need its recorded growth inhibition.
A) 11.2

Q) I have this compound here, Clc1ccc(CSc2nnc(SCc3ccc(Cl)cc3)c3[nH]cnc23)cc1 , and I need its recorded growth inhibition.
A) -11.7

Q) I have this compound here, COc1cc(/C=C/c2ccccn2)oc(=O)c1 , and I need its recorded growth inhibition.
A) 7.9

Q) I have this compound here, O=C(NCCO)[C@H](O)[C@@H](O)[C@H](O)[C@H](O)CO , and I need its recorded growth inhibition.
A) 15.2

Q) I have this compound here, Oc1ccccc1C=NCCN(CCN=Cc1ccccc1O)c1ccccc1 , and I need its recorded growth inhibition.
A) 32.5

Q) I have this compound here, O=C1CC2CCCCC2CC1c1ccc(OCc2ccccc2)c(OCc2ccccc2)c1 (configuration not stated) , and I need its recorded growth inhibition.
A) -13.7

Q) I have this compound here, CCOC(C)Oc1ccccc1 (configuration not stated) , and I need its recorded growth inhibition.
A) 16.4
